# Tested on: HeLa-APL
# Protocol details: SRB colorimetric cell growth inhibition assay, HeLa-APL (aplidine resistant)
# Assay type: cell-based
# Measurement conditions: Homo sapiens, HELA-APL; LC=cell killing (cytotoxic effect); read-out: LC50 HELA-APL
Metric: CC50 (µM)

• COc1cc2c(cc1OC)-c1c(-c3ccc(OC(=O)CCCC[C@@H]4SC[C@@H]5NC(=O)N[C@@H]54)c(OC)c3)c3c4cc(OC)c(OC(=O)CCCC[C@@H]5SC[C@@H]6NC(=O)N[C@@H]65)cc4oc(=O)c3n1CC2 = 10.3
• COc1cc(-c2c3c4cc(OC)c(O)cc4oc(=O)c3n3ccc4c([N+](=O)[O-])cccc4c23)ccc1O = 20.1
• COc1cc(-c2c3c4cc(OC)c(OC(C)C)cc4oc(=O)c3n3ccc4c([N+](=O)[O-])cccc4c23)ccc1OC(C)C = 17.2
• COc1cc(-c2c3n(c4c(=O)oc5cc(N)c(OC)cc5c24)CCc2cc(OC)c(OC)cc2-3)ccc1N = 19.5

---

# System: IGROV-ET
# Protocol details: SRB colorimetric cell growth inhibition assay, IGROV-ET (ET-743 resistant)
# Format: cell-based
# Measurement conditions: Homo sapiens, IGROV-ET; GI=growth inhibition; read-out: GI50 IGROV-ET
Note to self: GI50 under 900 nM means True, ties and anything higher get False.

• COc1cc(-c2c3c4cc(OC)c(OC(=O)[C@@H](N)CCCCNC(=O)OCc5ccccc5)cc4oc(=O)c3n3ccc4c(OC(=O)[C@@H](N)CCCCNC(=O)OCc5ccccc5)c(OC)c(OC)cc4c23)ccc1OC(=O)[C@@H](N)CCCCNC(=O)OCc1ccccc1 = False
• COc1cc(-c2c3c4cc(OC)c(OC(=O)[C@@H](N)C(C)C)cc4oc(=O)c3n3ccc4cc(OC(=O)[C@@H](N)C(C)C)c(OC)cc4c23)ccc1OC(=O)[C@@H](N)C(C)C = True
• CC[C@H](C)[C@H](N)C(=O)Oc1ccc(-c2c3c4cc(OC)c(OC(=O)[C@@H](N)[C@@H](C)CC)cc4oc(=O)c3n3ccc4cc(OC(=O)[C@@H](N)[C@@H](C)CC)c(OC)cc4c23)cc1OC = True
• COc1cc(-c2c3c4cc(OC)c(OC(=O)[C@H](N)C(C)C)cc4oc(=O)c3n3ccc4c(OC(=O)[C@H](N)C(C)C)c(OC)c(OC)cc4c23)ccc1OC(=O)[C@H](N)C(C)C = True

---

# Tested on: LoVo
# Protocol details: SRB colorimetric cell growth inhibition assay, LoVo
# Assay type: cell-based
# Measurement conditions: LOVO; cell killing (cytotoxic effect); read-out: LC50 LOVO
Metric: CC50 (nM)

* COc1cc2c(cc1O)oc(=O)c1c2c(-c2ccc(OC(=O)[C@H](C)N)c(OC)c2)c2c3cc(OC)c(O)cc3ccn21.Cl | 1290
* COc1cc(-c2c3c4cc(OC)c(OC(=O)[C@H](C)N)cc4oc(=O)c3n3ccc4c(OC(=O)[C@H](C)N)c(OC)c(OC)cc4c23)ccc1OC(=O)[C@H](C)N [Compound 16] | 612
* COc1cc(-c2c3c4cc(OC)c(OC(=O)[C@H](C)N)cc4oc(=O)c3n3ccc4cc(O)c(OC)cc4c23)ccc1O.Cl | 1520
* COc1cc2ccn3c(c(-c4ccc(OC(=O)[C@@H](N)C(C)C)c(OC)c4)c4c5cc(OC)c(OC(=O)[C@@H](N)C(C)C)cc5oc(=O)c43)c2cc1OC | 6600
* COc1cc(-c2c3n(c4c(=O)oc5cc(OC(C)=O)c(OC)cc5c24)CCc2cc(OC)c(OC(C)=O)cc2-3)ccc1OC(C)=O | 15900

---

# System: IGROV-ET
# Protocol details: SRB colorimetric cell growth inhibition assay, IGROV-ET (ET-743 resistant)
# Assay type: cell-based
# Measurement conditions: Homo sapiens, IGROV-ET; total growth inhibition (cytostatic effect); read-out: TGI IGROV-ET
Label Satisfied for high-side IC (TGI) (at or above 2000 nM) and Not satisfied for low-side IC (TGI) (below it).

* COc1cc(-c2c3c4cc(OC)c(OC(=O)[C@@H](N)CC(C)C)cc4oc(=O)c3n3ccc4cc(OC(=O)[C@@H](N)CC(C)C)c(OC)cc4c23)ccc1OC(=O)[C@@H](N)CC(C)C | Not satisfied
* COc1cc2c(cc1O)oc(=O)c1c2c(-c2ccc(OC)c(OC)c2)c2c3cc(OC)c(O)cc3ccn21 | Not satisfied
* COc1cc(-c2c3c4cc(OC)c(OC(=O)[C@@H]5CCCN5)cc4oc(=O)c3n3ccc4c(OC(=O)[C@@H]5CCCN5)c(OC)c(OC)cc4c23)ccc1OC(=O)[C@@H]1CCCN1 | Not satisfied
* COc1cc(-c2c3c4cc(OC)c(OC(=O)[C@@H](N)Cc5ccccc5)cc4oc(=O)c3n3ccc4cc(OC(=O)[C@@H](N)Cc5ccccc5)c(OC)cc4c23)ccc1OC(=O)[C@@H](N)Cc1ccccc1 | Not satisfied
* COc1cc(-c2c3n(c4c(=O)oc5cc(OC(=O)[C@H](C)NC(=O)[C@H](C)NC(=O)OC(C)(C)C)c(OC)cc5c24)CCc2cc(OC(=O)[C@H](C)NC(=O)[C@H](C)NC(=O)OC(C)(C)C)c(OC)cc2-3)ccc1OC(=O)[C@H](C)NC(=O)[C@H](C)NC(=O)OC(C)(C)C | Satisfied
* COc1cc2c(cc1O)CCn1c-2cc2c3cc(OC)c(O)cc3oc(=O)c21 | Satisfied
* COc1cc2c(cc1O)oc(=O)c1c2c(-c2cccc([N+](=O)[O-])c2)c2c3cc(OC)c(O)cc3ccn21 | Satisfied

---

Catalogue of GI50 readings, one per entry.
# Tested on: PANC-1
# Protocol details: SRB colorimetric cell growth inhibition assay, PANC-1
# Format: cell-based
# Measurement conditions: Homo sapiens, PANC-1, PANC-1; GI=growth inhibition; read-out: GI50 PANC-1
# Protocol: The finality of these assays is to interrupt the growth of an “in vitro” tumor cell culture by means a continued exhibition of the cells to the sample to be testing. A colorimetric type of assay, using sulforhodamine B (SRB) reaction has been adapted for a quantitative measurement of cell growth and viability (following the technique described by P. A. Skehan, et al., J. Natl. Cancer Inst. 1990, 82, 1107-1112). […] The values for mean +/− SD of data from triplicate wells are calculated. […]
Metric: GI50 (nM)

• COc1cc(-c2c3c4cc(OC)c(OC(=O)[C@@H](N)C(C)C)cc4oc(=O)c3n3ccc4cc(OC(=O)[C@@H](N)C(C)C)c(OC)cc4c23)ccc1OC(=O)[C@@H](N)C(C)C = 169
• COc1cc(-c2c3c4cc(OC)c(OC(=O)[C@H](N)C(C)C)cc4oc(=O)c3n3ccc4cc(OC(=O)[C@H](N)C(C)C)c(OC)cc4c23)ccc1OC(=O)[C@H](N)C(C)C = 206
• COc1cc2c(cc1OC)-c1c(-c3ccc(OC(=O)CCCC[C@@H]4SC[C@@H]5NC(=O)N[C@@H]54)c(OC)c3)c3c4cc(OC)c(OC(=O)CCCC[C@@H]5SC[C@@H]6NC(=O)N[C@@H]65)cc4oc(=O)c3n1CC2 = 3860
• COc1cc(-c2c3c4cc(OC)c(OC(=O)[C@@H](N)CC(C)C)cc4oc(=O)c3n3ccc4c(OC(=O)[C@@H](N)CC(C)C)c(OC)c(OC)cc4c23)ccc1OC(=O)[C@@H](N)CC(C)C = 2030

---

# Tested on: IGROV-ET
# Protocol details: SRB colorimetric cell growth inhibition assay, IGROV-ET (ET-743 resistant)
# Type: cell-based
# Measurement conditions: Homo sapiens, IGROV-ET; cell killing (cytotoxic effect); read-out: LC50 IGROV-ET
Note to self: CC50 under 10 µM means class 1, ties and anything higher get class 0.

* COc1cc(-c2c3c4cc(OC)c(OC(=O)[C@@H]5CCCN5)cc4oc(=O)c3n3ccc4cc(OC(=O)[C@@H]5CCCN5)c(OC)cc4c23)ccc1OC(=O)[C@@H]1CCCN1 | class 1
* COc1cc2c(cc1OC)-c1c(-c3ccc(OC(=O)[C@H](C)NC(=O)OC(C)(C)C)c(OC)c3)c3c4cc(OC)c(OC(=O)[C@H](C)NC(=O)OC(C)(C)C)cc4oc(=O)c3n1CC2 | class 0
* COc1cc2c(cc1O)oc(=O)c1c2c(-c2ccc(OC)c(OC)c2)c2c3cc(OC)c(O)cc3ccn21 | class 0
* COc1cc(-c2c3n(c4c(=O)oc5cc(OC(=O)[C@H](NC(=O)OC(C)(C)C)C(C)C)c(OC)cc5c24)CCc2cc(OC(=O)[C@H](NC(=O)OC(C)(C)C)C(C)C)c(OC)cc2-3)ccc1OC(=O)[C@H](NC(=O)OC(C)(C)C)C(C)C | class 1
* COc1cc(-c2c3c4cc(OC)c(OC(=O)C[C@H](N)C(C)C)cc4oc(=O)c3n3ccc4cc(OC(=O)C[C@H](N)C(C)C)c(OC)cc4c23)ccc1OC(=O)C[C@H](N)C(C)C | class 1
* COc1cc(-c2c3c4cc(OC)c(OC(=O)CCCCCN)cc4oc(=O)c3n3ccc4cc(OC(=O)CCCCCN)c(OC)cc4c23)ccc1OC(=O)CCCCCN | class 0
* COc1cc2ccn3c(c(-c4ccc(OC(=O)[C@@H](NC(=O)OC(C)(C)C)C(C)C)c(OC)c4)c4c5cc(OC)c(OC(=O)[C@@H](NC(=O)OC(C)(C)C)C(C)C)cc5oc(=O)c43)c2cc1OC | class 0
* COc1cc(-c2c3c4cc(OC)c(OC(=O)[C@H](C)N)cc4oc(=O)c3n3ccc4cc(OC(=O)[C@H](C)N)c(OC)cc4c23)ccc1OC(=O)[C@H](C)N | class 0
* CC[C@H](C)[C@H](NC(=O)OC(C)(C)C)C(=O)Oc1ccc(-c2c3c4cc(OC)c(OC(=O)[C@@H](NC(=O)OC(C)(C)C)[C@@H](C)CC)cc4oc(=O)c3n3ccc4cc(OC(=O)[C@@H](NC(=O)OC(C)(C)C)[C@@H](C)CC)c(OC)cc4c23)cc1OC | class 1
* COc1cc(-c2c3c4cc(OC)c(OC(=O)[C@@H](N)Cc5ccccc5)cc4oc(=O)c3n3ccc4cc(OC(=O)[C@@H](N)Cc5ccccc5)c(OC)cc4c23)ccc1OC(=O)[C@@H](N)Cc1ccccc1 | class 1
